target: UBE2T; test: reporter assay of Huesken 2005; details: siRNA
Oligonucleotides are written 5' to 3', each unit as a sugar letter and its base; * is a phosphorothioate linkage, no mark a phosphodiester; rarer units and linkages stand in square brackets, end groups in braces. Plain capitals give the bases only. d = 2'-deoxy (DNA); r = 2'-OH (RNA)
For each entry below, report its normalised inhibition (eCFP-eYFP dual reporter) value.
Give bare numbers, in %.

Consider the reported normalised inhibition (eCFP-eYFP dual reporter) for these substances:
{"SUBSTANCE": "sense rCrCrArArArArGrGrUrGrCrUrUrGrGrArGrArCdTdT / antisense rGrUrCrUrCrCrArArGrCrArCrCrUrUrUrUrGrGdTdG", "STUDY_TARGET": "UBE2T", "UNITS_LABEL": "%", "REPORTED": 84.9}
{"SUBSTANCE": "sense rArCrCrCrUrGrArUrGrArCrCrCrGrCrUrCrArUdTdT / antisense rArUrGrArGrCrGrGrGrUrCrArUrCrArGrGrGrUdTdG", "STUDY_TARGET": "UBE2T", "UNITS_LABEL": "%", "REPORTED": 101}
{"SUBSTANCE": "sense rGrCrUrCrArArArUrArUrUrArGrGrUrGrGrArGdTdT / antisense rCrUrCrCrArCrCrUrArArUrArUrUrUrGrArGrCdTdC", "STUDY_TARGET": "UBE2T", "UNITS_LABEL": "%", "REPORTED": 87.1}

Please state, for each entry, its recorded normalised inhibition (eCFP-eYFP dual reporter).
1. sense rUrGrGrUrGrArCrUrCrCrArGrArGrUrArCrArCdTdT / antisense rGrUrGrUrArCrUrCrUrGrGrArGrUrCrArCrCrAdGdC
2. sense rArArCrCrCrArArCrCrCrUrGrArUrGrArCrCrCdTdT / antisense rGrGrGrUrCrArUrCrArGrGrGrUrUrGrGrGrUrUdCdT
3. sense rArArGrGrUrGrCrUrUrGrGrArGrArCrCrArUrCdTdT / antisense rGrArUrGrGrUrCrUrCrCrArArGrCrArCrCrUrUdTdT

Reply:
80.3
52.7
60.5

Give normalised inhibition (eCFP-eYFP dual reporter) for each listed item.
1. sense rGrCrUrGrArUrGrArGrGrArArGrArGrArUrGrCdTdT / antisense rGrCrArUrCrUrCrUrUrCrCrUrCrArUrCrArGrCdCdT
2. sense rCrUrUrArUrGrArGrArArArGrGrUrGrUrUrUrUdTdT / antisense rArArArArCrArCrCrUrUrUrCrUrCrArUrArArGdGdT
3. sense rArGrGrArArGrArGrArUrGrCrUrUrGrArUrArAdTdT / antisense rUrUrArUrCrArArGrCrArUrCrUrCrUrUrCrCrUdCdA
4. sense rArArGrUrUrArUrCrArUrUrCrCrUrGrArGrArGdTdT / antisense rCrUrCrUrCrArGrGrArArUrGrArUrArArCrUrUdCdT

Reply:
73.8
92.5
113
79.4

###

target: RHOQ; assay: reporter assay of Huesken 2005; settings: siRNA
Oligonucleotides are written 5' to 3', each unit as a sugar letter and its base; * is a phosphorothioate linkage, no mark a phosphodiester; rarer units and linkages stand in square brackets, end groups in braces. Plain capitals give the bases only. d = 2'-deoxy (DNA); r = 2'-OH (RNA)
normalised inhibition (eCFP-eYFP dual reporter) of 70% or higher: 1. Under 70%: -1.

Before answering, review these 2 worked examples.
{"SUBSTANCE": "sense rArUrGrGrArArUrCrUrUrArUrGrUrArArCrUrUdTdT / antisense rArArGrUrUrArCrArUrArArGrArUrUrCrCrArUdTdT", "GROUP": -1}
{"SUBSTANCE": "sense rArUrArArUrGrGrArUrGrCrArUrCrArGrArUrAdTdT / antisense rUrArUrCrUrGrArUrGrCrArUrCrCrArUrUrArUdCdT", "GROUP": 1}

Task item: Please tell me: is the substance sense rUrUrGrUrGrArArCrArArCrCrUrArArUrGrCrAdTdT / antisense rUrGrCrArUrUrArGrGrUrUrGrUrUrCrArCrArAdTdG at or over 70% in terms of normalised inhibition (eCFP-eYFP dual reporter)?
Reply: 1

###

target: Mmp7 (rat); assay: reporter assay of Huesken 2005; conditions: siRNA
Oligonucleotides are given in HELM: sugar(base)linkage, 5' to 3'; d 2'-deoxyribose, r ribose, m 2'-O-methylribose, p phosphate. ss, as = sense and antisense strand
MEASURE_NAME: normalised inhibition (eCFP-eYFP dual reporter) (%)
One number for each entry, in %.

Look over these answered cases.
{"SUBSTANCE": "RNA1{r(A)p.r(A)p.r(U)p.r(G)p.r(C)p.r(A)p.r(G)p.r(A)p.r(A)p.r(G)p.r(C)p.r(C)p.r(C)p.r(A)p.r(G)p.r(G)p.r(U)p.r(G)p.r(U)p.d(T)p.d(T)}|RNA2{r(A)p.r(C)p.r(A)p.r(C)p.r(C)p.r(U)p.r(G)p.r(G)p.r(G)p.r(C)p.r(U)p.r(U)p.r(C)p.r(U)p.r(G)p.r(C)p.r(A)p.r(U)p.r(U)p.d(A)p.d(T)}$$$RNA1{StrandType:ss}|RNA2{StrandType:as}$", "REPORTED": 86.1}
{"SUBSTANCE": "RNA1{r(U)p.r(G)p.r(C)p.r(C)p.r(U)p.r(U)p.r(U)p.r(G)p.r(C)p.r(A)p.r(C)p.r(C)p.r(G)p.r(G)p.r(G)p.r(G)p.r(C)p.r(C)p.r(A)p.d(T)p.d(T)}|RNA2{r(U)p.r(G)p.r(G)p.r(C)p.r(C)p.r(C)p.r(C)p.r(G)p.r(G)p.r(U)p.r(G)p.r(C)p.r(A)p.r(A)p.r(A)p.r(G)p.r(G)p.r(C)p.r(A)p.d(T)p.d(G)}$$$RNA1{StrandType:ss}|RNA2{StrandType:as}$", "REPORTED": 59.1}
{"SUBSTANCE": "RNA1{r(G)p.r(G)p.r(G)p.r(A)p.r(A)p.r(C)p.r(A)p.r(G)p.r(G)p.r(C)p.r(G)p.r(C)p.r(A)p.r(G)p.r(A)p.r(A)p.r(U)p.r(U)p.r(A)p.d(T)p.d(T)}|RNA2{r(U)p.r(A)p.r(A)p.r(U)p.r(U)p.r(C)p.r(U)p.r(G)p.r(C)p.r(G)p.r(C)p.r(C)p.r(U)p.r(G)p.r(U)p.r(U)p.r(C)p.r(C)p.r(C)p.d(A)p.d(C)}$$$RNA1{StrandType:ss}|RNA2{StrandType:as}$", "REPORTED": 93.6}
{"SUBSTANCE": "RNA1{r(C)p.r(A)p.r(U)p.r(G)p.r(G)p.r(A)p.r(G)p.r(A)p.r(U)p.r(A)p.r(A)p.r(U)p.r(G)p.r(C)p.r(A)p.r(G)p.r(A)p.r(A)p.r(G)p.d(T)p.d(T)}|RNA2{r(C)p.r(U)p.r(U)p.r(C)p.r(U)p.r(G)p.r(C)p.r(A)p.r(U)p.r(U)p.r(A)p.r(U)p.r(C)p.r(U)p.r(C)p.r(C)p.r(A)p.r(U)p.r(G)p.d(A)p.d(C)}$$$RNA1{StrandType:ss}|RNA2{StrandType:as}$", "REPORTED": 97.5}

Task item: Item: RNA1{r(G)p.r(C)p.r(A)p.r(G)p.r(A)p.r(A)p.r(U)p.r(U)p.r(A)p.r(U)p.r(C)p.r(U)p.r(U)p.r(A)p.r(G)p.r(G)p.r(A)p.r(A)p.r(A)p.d(T)p.d(T)}|RNA2{r(U)p.r(U)p.r(U)p.r(C)p.r(C)p.r(U)p.r(A)p.r(A)p.r(G)p.r(A)p.r(U)p.r(A)p.r(A)p.r(U)p.r(U)p.r(C)p.r(U)p.r(G)p.r(C)p.d(G)p.d(C)}$$$RNA1{StrandType:ss}|RNA2{StrandType:as}$ Test system: Mmp7 (rat) Read-out: normalised inhibition (eCFP-eYFP dual reporter) Value: ?
Reply: 132

###

target: DENND5A; assay: reporter assay of Huesken 2005; settings: siRNA
Oligonucleotides are written 5' to 3', each unit as a sugar letter and its base; * is a phosphorothioate linkage, no mark a phosphodiester; rarer units and linkages stand in square brackets, end groups in braces. Plain capitals give the bases only. d = 2'-deoxy (DNA); r = 2'-OH (RNA)
For each of the substances below, state its normalised inhibition (eCFP-eYFP dual reporter).
Param answer (str): number followed by unit.

Solved entries (count: 5):
{"SUBSTANCE": "sense rArArUrGrGrCrArUrUrGrUrGrArArGrCrArCrUdTdT / antisense rArGrUrGrCrUrUrCrArCrArArUrGrCrCrArUrUdGdA", "REPORTED": "60.5%"}
{"SUBSTANCE": "sense rArCrGrCrUrGrUrUrGrCrUrCrUrGrUrGrGrArGdTdT / antisense rCrUrCrCrArCrArGrArGrCrArArCrArGrCrGrUdCdA", "REPORTED": "60.7%"}
{"SUBSTANCE": "sense rGrArGrCrUrGrCrUrCrArCrArUrCrCrCrArGrCdTdT / antisense rGrCrUrGrGrGrArUrGrUrGrArGrCrArGrCrUrCdCdC", "REPORTED": "42.6%"}
{"SUBSTANCE": "sense rArUrCrCrArArCrCrCrArGrCrCrArGrGrArUrAdTdT / antisense rUrArUrCrCrUrGrGrCrUrGrGrGrUrUrGrGrArUdGdA", "REPORTED": "51.8%"}
{"SUBSTANCE": "sense rCrArUrGrUrCrGrGrArGrCrGrUrGrCrUrGrGrAdTdT / antisense rUrCrCrArGrCrArCrGrCrUrCrCrGrArCrArUrGdCdC", "REPORTED": "60.8%"}

Task item: What value of measured normalised inhibition (eCFP-eYFP dual reporter) is listed for sense rArArCrCrUrArUrUrArUrGrArGrArCrArUrUrAdTdT / antisense rUrArArUrGrUrCrUrCrArUrArArUrArGrGrUrUdTdG ?
Reply: 66.3%
